B1: CDC25A (parent)
chain: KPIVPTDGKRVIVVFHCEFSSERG

Variants of: B1
procedure.summary: protein stability index of a GFP-peptide fusion (GPS, HEK-293T) (PSI 1-6); higher = more stable;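 further: lentivirally expressed fusions sorted by FACS into six bins by GFP to DsRed ratio, PSI derived from sequencing read proportions per bin multiplied by bin number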
experimental.context: c terminus: a fixed tail appended
Reported protein stability index is given for each of the following variants.
No unit in the answer, only the number.

Study these solved cases before continuing.
    var        reported_endpoint  readout_number
0   P2A  protein stability index            3.03
1   T6A  protein stability index            1.44
2   K9Q  protein stability index            3.32
3  S21E  protein stability index            1.56

// below: protein stability index requested for another variant
For `T6K` the variant record lists protein stability index as 1.83

All figures here come from the supplement of paper PMC10567573.
